# Tested on: corn
# protocol_notes: Test C preemergence
# Assay type: in vivo, Zea mays
# assay_conditions: preemergence, 31 g ai/ha; visual rating, scale 0 to 100 (0 no effect, 100 complete control), 13 to 15 days
Criterion: Corn plant response rating strictly under 20. Met: met. Not met: not met.

>>> discrete_label("CCc1cc(C(=O)NC(C)C)nn1Cc1ccnc(C(F)(F)F)c1")
"not met"
>>> discrete_label("CCCc1cc(C(=O)NCC)nn1Cc1ccnc(C(F)(F)F)c1")
"not met"
>>> discrete_label("CCONC(=O)c1cc(OCC)n(Cc2ccnc(C(F)(F)F)c2)n1")
"not met"
>>> discrete_label("CCc1cc(C(=O)NC2CC2)nn1Cc1ccnc(OC(F)F)c1")
"not met"
>>> discrete_label("CCCNC(=O)c1cc(CCCl)n(Cc2ccnc(C(F)(F)F)c2)n1")
"met"
>>> discrete_label("CCONC(=O)c1cc(CC)n(Cc2cc(C(F)(F)F)no2)n1")
"met"

----------
# Tested on: nightshade
# protocol_notes: Test F preemergence
# Type: in vivo, Solanum ptycanthum
# assay_conditions: Preemergence; 62 g ai/ha; scale 0 to 100
attribute_measured: Plant response rating, Nightshade

>>> recorded_measurement("CCc1cc(C(=O)NC2CC2)nn1Cc1ccnc(OCC(F)(F)F)c1")
20
>>> recorded_measurement("CCNC(=O)c1cc(CC)n(Cc2ccnc(C(F)(F)F)c2)n1")
75
>>> recorded_measurement("CCOc1cc(C(=O)NCC(F)(F)F)nn1Cc1ccnc(C(F)(F)F)c1")
100
>>> recorded_measurement("CCCc1cc(C(=O)NCC(F)(F)F)nn1Cc1ccnc(C(F)(F)F)c1")
100

----------
# System: nightshade
# protocol_notes: Test F preemergence
# Type: in vivo, Solanum ptycanthum
# assay_conditions: Preemergence; 125 g ai/ha; scale 0 to 100
# Lookup of reported Plant response rating, Nightshade keyed by entry
attribute_measured: Plant response rating, Nightshade

>>> recorded_measurement("Cc1cc(C(=O)NC(C)C)nn1Cc1ccnc(C(F)(F)F)c1 [Compound 197]")
70
>>> recorded_measurement("CCCc1cc(C(=O)NCC(F)(F)F)nn1Cc1ccnc(C(F)(F)F)c1 [Compound 105]")
100
>>> recorded_measurement("CCNC(=O)c1cc(CC)n(Cc2ccnc(C(F)(F)F)c2)n1 [Compound 196]")
95
>>> recorded_measurement("CCc1cc(C(=O)NC2CC2)nn1Cc1ccnc(OCC(F)(F)F)c1 [Compound 200]")
75

----------
# System: corn
# protocol_notes: Test A postemergence
# Format: in vivo, Zea mays
# assay_conditions: Postemergence, 1000 g ai/ha; visual rating after approx. 10 days, 0 to 100 scale (0 no effect, 100 complete control)
attribute_measured: Corn plant response rating

>>> recorded_measurement("CCc1cc(C(=O)NC)nn1Cc1cccc(C(F)(F)F)c1")
20
>>> recorded_measurement("CCc1cc(C(=O)NCCOC)nn1Cc1cccc(OC(F)(F)F)c1")
40
>>> recorded_measurement("CCc1cc(C(=O)N(C)C)nn1Cc1cccc(OC(F)(F)F)c1")
10
>>> recorded_measurement("CCc1cc(C(=O)NCCC(F)(F)F)nn1Cc1cccc(C(F)(F)F)c1")
10
>>> recorded_measurement("CCc1cc(C(=O)N(C)CC)nn1Cc1cccc(OC(F)(F)F)c1")
30

----------
Pigweed plant response rating values by entry
# Test system: pigweed
# protocol_notes: Test A preemergence
# Format: in vivo, Amaranthus retroflexus
# assay_conditions: preemergence, 500 g ai/ha, visual injury after approx. 10 days, 0 to 100 scale (0 no effect, 100 complete control)
attribute_measured: Pigweed plant response rating

>>> recorded_measurement("CCCNC(=O)c1cc(CCCl)n(Cc2ccnc(C(F)(F)F)c2)n1")
100
>>> recorded_measurement("CCOc1cc(C(=O)NCC(F)(F)F)nn1Cc1ccnc(C(F)(F)F)c1")
100
>>> recorded_measurement("CCOc1cc(C(=O)NC(C)C)nn1Cc1ccnc(C(F)(F)F)c1")
100
>>> recorded_measurement("CCc1cc(-c2ccc(F)cc2)nn1Cc1ccnc(C(F)(F)F)c1")
100
>>> recorded_measurement("CCCCc1cc(C(=O)NC2CC2)nn1Cc1ccnc(C(F)(F)F)c1")
100
>>> recorded_measurement("CCONC(=O)c1cc(CC)n(Cc2cc(C(F)(F)F)no2)n1")
100
>>> recorded_measurement("CCCNC(=O)c1cc(CC)n(Cc2ccnc(OC(F)F)c2)n1")
100
>>> recorded_measurement("CCCNC(=O)c1cc(CCC)n(Cc2cc(C(F)(F)F)nn2C)n1")
100
>>> recorded_measurement("CCc1cc(C(=O)NCC2CC2)nn1Cc1ccnc(C(F)(F)F)c1")
100

----------
The following compounds are listed with their measured Plant response rating, Soybean values.
# System: soybean
# protocol_notes: Test C preemergence
# Type: in vivo, Glycine max
# assay_conditions: preemergence, 125 g ai/ha; 13 to 15 days; scale 0 to 100, 0 = no effect, 100 = complete control
attribute_measured: Plant response rating, Soybean

>>> recorded_measurement("CCOc1cc(C(=O)NC2CC2)nn1Cc1ccnc(C(F)(F)F)c1 [Compound 189]")
98
>>> recorded_measurement("CCCNC(=O)c1cc(CC)n(Cc2ccnc(OC(F)F)c2)n1 [Compound 132]")
90
>>> recorded_measurement("CCNC(=O)c1cc(CC)n(Cc2ccnc(C(F)(F)F)c2)n1 [Compound 196]")
90
>>> recorded_measurement("CCc1cc(C(=O)NC(C)C)nn1Cc1ccnc(C(F)(F)F)c1 [Compound 139]")
30

----------
# Test system: waterhemp
# protocol_notes: Test C preemergence
# Type: in vivo, Amaranthus rudis
# assay_conditions: preemergence, 250 g ai/ha; scale 0 to 100, 0 is no effect, 100 is complete control
Reported values of Waterhemp plant response rating for individual entries
attribute_measured: Waterhemp plant response rating

>>> recorded_measurement("O=C(NCC(F)(F)F)c1cc(CCCl)n(Cc2ccnc(C(F)(F)F)c2)n1 [Compound 143]")
100
>>> recorded_measurement("CCCc1cc(C(=O)NOCC)nn1Cc1ccnc(C(F)(F)F)c1 [Compound 185]")
100
>>> recorded_measurement("CCc1cc(C(=O)NC2CC2)nn1Cc1ccnc(OCC(F)(F)F)c1 [Compound 200]")
100
>>> recorded_measurement("CCCNC(=O)c1cc(CCCl)n(Cc2ccnc(C(F)(F)F)c2)n1 [Compound 145]")
100
>>> recorded_measurement("CCOc1cc(C(=O)NC2CC2)nn1Cc1ccnc(C(F)(F)F)c1 [Compound 189]")
100
>>> recorded_measurement("CCNC(=O)c1cc(CC)n(Cc2ccnc(C(F)(F)F)c2)n1 [Compound 196]")
100

----------
# Tested on: johnsongrass
# protocol_notes: Test C postemergence
# Format: in vivo, Sorghum halepense
# assay_conditions: postemergence, 62 g ai/ha; scale 0 to 100
attribute_measured: Johnsongrass plant response rating

>>> recorded_measurement("CCc1cc(C(=O)NCC(F)(F)F)nn1Cc1ccnc(C(F)(F)F)c1")
5
>>> recorded_measurement("CCOc1cc(C(=O)NC(C)C)nn1Cc1ccnc(C(F)(F)F)c1")
0
>>> recorded_measurement("CCNC(=O)c1cc(CC)n(Cc2ccnc(C(F)(F)F)c2)n1")
5
>>> recorded_measurement("CCCc1cc(C(=O)NCC)nn1Cc1ccnc(C(F)(F)F)c1")
0
>>> recorded_measurement("CCc1cc(C(=O)NC(C)C)nn1Cc1ccnc(C(F)(F)F)c1")
10

----------
# Test system: nutsedge, yellow
# protocol_notes: Test C preemergence
# Assay type: in vivo, Cyperus esculentus
# assay_conditions: Preemergence, 250 g ai/ha
Reported Plant response rating (scale of 0 to 100), Nutsedge, Yellow values for a set of molecules
attribute_measured: Plant response rating (scale of 0 to 100), Nutsedge, Yellow

>>> recorded_measurement("CCCNC(=O)c1cc(CC)n(Cc2ccnc(OC(F)F)c2)n1")
70
>>> recorded_measurement("CCc1cc(C(=O)NCC(F)(F)F)nn1Cc1ccnc(C(F)(F)F)c1")
98
>>> recorded_measurement("CCCc1cc(C(=O)NCC)nn1Cc1cc(C(F)(F)F)nn1C")
75
>>> recorded_measurement("CCONC(=O)c1cc(CC)n(Cc2cc(C(F)(F)F)no2)n1")
55
>>> recorded_measurement("CCCc1cc(C(=O)NCC)nn1Cc1ccnc(C(F)(F)F)c1")
90

----------
# Test system: ryegrass, Italian
# protocol_notes: Test C preemergence
# Type: in vivo, Lolium multiflorum
# assay_conditions: preemergence, 250 g ai/ha; scale 0 to 100, 0 is no effect, 100 is complete control
# Lookup of reported Ryegrass, Italian plant response rating keyed by entry
attribute_measured: Ryegrass, Italian plant response rating

>>> recorded_measurement("CCOc1cc(C(=O)NC2CC2)nn1Cc1ccnc(C(F)(F)F)c1")
90
>>> recorded_measurement("CCCNC(=O)c1cc(CCC)n(Cc2cc(C(F)(F)F)nn2C)n1")
90
>>> recorded_measurement("O=C(NCC(F)(F)F)c1cc(CCCl)n(Cc2ccnc(C(F)(F)F)c2)n1")
90
>>> recorded_measurement("CCCNC(=O)c1cc(CCCl)n(Cc2ccnc(C(F)(F)F)c2)n1")
90
>>> recorded_measurement("CCc1cc(C(=O)NC2CC2)nn1Cc1cc(C(F)(F)C(F)(F)F)nn1C")
80
>>> recorded_measurement("CCCc1cc(C(=O)NOCC)nn1Cc1ccnc(C(F)(F)F)c1")
90
